Exercise: for every item that follows, state its recorded CCL2 Average.
- Tested on: CCL2 mRNA level in HEK-293T cells
- Applied conditions: human
Give bare numbers.

Below, 3 molecules whose answers are already recorded.
CCCCCCCCCCCOC(=O)CCCCCN(CCCCCCCC(=O)OC(CCCCCCCC)CCCCCCCC)CC(O)CCCCNC(=O)c1nccn1C (stereo not shown) [Compound 36]	1.86
CCCCCCCCCCCOC(=O)CCCCCN(CCCCCCCC(=O)OC(CCCCCCCC)CCCCCCCC)CC(O)CCCCNC(=O)c1ccc[nH]1 (stereo not shown) [Compound 16]	0.79
CCCCCCCCCCCOC(=O)CCCCCN(CCCCCCCC(=O)OC(CCCCCCCC)CCCCCCCC)CC(O)CCCCNC(=O)c1c[nH]c(O)n1 (stereo not shown) [Compound 35]	1.42

// query Quick one: CCL2 Average for CCCCCCCCCCCOC(=O)CCCCCN(CCCCCCCC(=O)OC(CCCCCCCC)CCCCCCCC)CC(O)CCCCNC(=O)c1cc[nH]c1 (stereo not shown) [Compound 17] ?
// result 0.65

###

- Tested on: female C57BL/6 mice
- Measurement description: Protein expression efficiency of fLuc mRNA-LNPs after intramuscular injection (IVIS whole-body luminescence)
- Format: in vivo
- Applied conditions: fLuc mRNA-LNP, intramuscular injection, luminescence at injection site, 6 hours after administration, mice
Observable: Total flux 6 hours

Below, 3 compounds whose answers are already recorded.
CCCCCCCCCCCOC(=O)CCCCCN(CCCCCCCC(=O)OC(CCCCCCCC)CCCCCCCC)CC(O)CCCCNC(=O)c1c(O)ccn1C (stereo not drawn)	4.45E+07
CCCCCCCCCCCOC(=O)CCCCCN(CCCCCCCC(=O)OC(CCCCCCCC)CCCCCCCC)CC(O)CCCCNC(=O)c1ccn(C)c1 (stereo not drawn)	3.82E+07
CCCCCCCCCCCOC(=O)CCCCCN(CCCCCCCC(=O)OC(CCCCCCCC)CCCCCCCC)CC(O)CCCCNC(=O)c1nccn1C (stereo not drawn)	3.18E+07

Below are 3 compounds. Give each one its Total flux 6 hours.
1. CCCCCCCCCCCOC(=O)CCCCCN(CCCCCCCC(=O)OC(CCCCCCCC)CCCCCCCC)CC(O)CCCCNC(=O)c1cn(C)cn1 (stereo not drawn)
2. CCCCCCCCCCCOC(=O)CCCCCN(CCCCCCCC(=O)OC(CCCCCCCC)CCCCCCCC)CC(O)CCCCNC(=O)c1cncn1C (stereo not drawn)
3. CCCCCCCCCCCOC(=O)CCCCCN(CCCCCCCC(=O)OC(CCCCCCCC)CCCCCCCC)CC(O)CCCCNC(=O)c1cccn1C (stereo not drawn)

// result
5.97E+06
1.47E+07
1.56E+07

###

- Measurement description: Stability of mRNA-LNPs according to storage temperature and duration
- Assay type: physicochemical
- Applied conditions: fLuc mRNA-LNP stored at 4° C., day 7
Observable: PDI D-7
One number for each entry.

CCCCC/C=C\C/C=C\CCCCCCCCC(CCCCCCCC/C=C\C/C=C\CCCCC)OC(=O)CCCN(C)C [MC3, DLin-MC3-DMA, reference compound]	0.060
CCCCCCCCCCCOC(=O)CCCCCN(CCCCCCCC(=O)OC(CCCCCCCC)CCCCCCCC)CC(O)CCCCNC(=O)c1cncn1C (stereo not drawn) [Compound 38]	0.086

Next item in the queue.
// query Quick one: PDI D-7 for CCCCCCCCCCCOC(=O)CCCCCN(CCCCCCCC(=O)OC(CCCCCCCC)CCCCCCCC)CC(O)CCCCNC(=O)c1cc[nH]c1 (stereo not drawn) [Compound 17] ?
// result 0.098

###

- Tested on: female C57BL/6 mice
- Measurement description: Protein expression efficiency of fLuc mRNA-LNPs after intramuscular injection (IVIS whole-body luminescence)
- Format: in vivo
- Applied conditions: fLuc mRNA-LNP, intramuscular injection, luminescence at injection site, 6 hours after administration, mice
Exercise: for every item that follows, state its recorded Total flux 6 hours.
Answers are plain numbers.

CCCCCCCCCCCOC(=O)CCCCCN(CCCCCCCC(=O)OC(CCCCCCCC)CCCCCCCC)CC(O)CCCCNC(=O)c1c[nH]cn1 (stereo not drawn) [Compound 34]	1.70E+07
CCCCC/C=C\C/C=C\CCCCCCCCC(CCCCCCCC/C=C\C/C=C\CCCCC)OC(=O)CCCN(C)C [MC3, DLin-MC3-DMA, reference compound]	1.78E+07
CCCCCCCCCCCOC(=O)CCCCCN(CCCCCCCC(=O)OC(CCCCCCCC)CCCCCCCC)CC(O)CCCCNC(=O)c1ccc[nH]1 (stereo not drawn) [Compound 16]	3.64E+07

Below are 2 compounds. Give each one its Total flux 6 hours.
1. CCCCCCCCCCCOC(=O)CCCCCN(CCCCCCCC(=O)OC(CCCCCCCC)CCCCCCCC)CC(O)CCCCNC(=O)c1cnc(O)n1C (stereo not drawn) [Compound 40]
2. CCCCCCCCCCCOC(=O)CCCCCN(CCCCCCCC(=O)OC(CCCCCCCC)CCCCCCCC)CC(O)CCCCNC(=O)c1[nH]ccc1O (stereo not drawn) [Compound 21]

// result
1. 6.60E+06
2. 9.56E+07

// query Param readout = Total flux 6 hours; param system = female C57BL/6 mice; param query = CCCCCCCCCCCOC(=O)CCCCCN(CCCCCCCC(=O)OC(CCCCCCCC)CCCCCCCC)CC(O)CCCCNC(=O)c1ncc[nH]1 (stereo not drawn) [Compound 33] ; response: value
// result 1.26E+07

###

Exercise: for every item that follows, state its recorded size (nm) Number.
- Measurement description: Size, polydispersity index and surface charge of mRNA-LNP (Malvern Zetasizer Nano ZS90)
- Assay type: physicochemical
- Applied conditions: mRNA-LNP made with the ionizable lipid at its optimal formulation (Table 2); diluted with PBS to 1 μg/mL mRNA
Answers are plain numbers, in nm.

Below, 5 compounds whose answers are already recorded.
CCCCCCCCCCCOC(=O)CCCCCN(CCCCCCCC(=O)OC(CCCCCCCC)CCCCCCCC)CC(O)CCCCNC(=O)c1nccn1C (stereo not drawn)	112
CCCCCCCCCCCOC(=O)CCCCCN(CCCCCCCC(=O)OC(CCCCCCCC)CCCCCCCC)CC(O)CCCCNC(=O)c1c(O)ccn1C (stereo not drawn)	137
CCCCCCCCCCCOC(=O)CCCCCN(CCCCCCCC(=O)OC(CCCCCCCC)CCCCCCCC)CC(O)CCCCNC(=O)c1ncc[nH]1 (stereo not drawn)	113
CCCCCCCCCCCOC(=O)CCCCCN(CCCCCCCC(=O)OC(CCCCCCCC)CCCCCCCC)CC(O)CCCCNC(=O)c1cncn1C (stereo not drawn)	142
CCCCCCCCCCCOC(=O)CCCCCN(CCCCCCCC(=O)OC(CCCCCCCC)CCCCCCCC)CC(O)CCCCNC(=O)c1cn(C)cn1 (stereo not drawn)	115

Next item in the queue.
// query Quick one: size (nm) Number for CCCCCCCCCCCOC(=O)CCCCCN(CCCCCCCC(=O)OC(CCCCCCCC)CCCCCCCC)CC(O)CCCCNC(=O)c1ccc[nH]1 (stereo not drawn) ?
// result 132

###

- Measurement description: Stability of mRNA-LNPs according to storage temperature and duration
- Assay type: physicochemical
- Applied conditions: fLuc mRNA-LNP stored at 4° C., day 1
Observable: Size (nm) D-1
Answers are plain numbers, in nm.

Below, 6 compounds whose answers are already recorded.
CCCCCCCCCCCOC(=O)CCCCCN(CCCCCCCC(=O)OC(CCCCCCCC)CCCCCCCC)CC(O)CCCCNC(=O)c1nccn1C (stereo not shown)	111.9
CCCCCCCCCCCOC(=O)CCCCCN(CCCCCCCC(=O)OC(CCCCCCCC)CCCCCCCC)CC(O)CCCCNC(=O)c1c(O)ccn1C (stereo not shown)	136.9
CCCCCCCCCCCOC(=O)CCCCCN(CCCCCCCC(=O)OC(CCCCCCCC)CCCCCCCC)CC(O)CCCCNC(=O)c1cn(C)cn1 (stereo not shown)	114.5
CCCCCCCCCCCOC(=O)CCCCCN(CCCCCCCC(=O)OC(CCCCCCCC)CCCCCCCC)CC(O)CCCCNC(=O)c1cnc(O)n1C (stereo not shown)	106.8
CCCCCCCCCCCOC(=O)CCCCCN(CCCCCCCC(=O)OC(CCCCCCCC)CCCCCCCC)CC(O)CCCCNC(=O)c1cc[nH]c1 (stereo not shown)	151.2
CCCCCCCCCCCOC(=O)CCCCCN(CCCCCCCC(=O)OC(CCCCCCCC)CCCCCCCC)CC(O)CCCCNC(=O)c1cccn1C (stereo not shown)	124.6

Below are 3 compounds. Give each one its Size (nm) D-1.
1. CCCCCCCCCCCOC(=O)CCCCCN(CCCCCCCC(=O)OC(CCCCCCCC)CCCCCCCC)CC(O)CCCCNC(=O)c1c[nH]c(O)n1 (stereo not shown)
2. CCCCCCCCCCCOC(=O)CCCCCN(CCCCCCCC(=O)OC(CCCCCCCC)CCCCCCCC)CC(O)CCCCNC(=O)c1c[nH]cn1 (stereo not shown)
3. CCCCCCCCCCCOC(=O)CCCCCN(CCCCCCCC(=O)OC(CCCCCCCC)CCCCCCCC)CC(O)CCCCNC(=O)c1cncn1C (stereo not shown)

// result
1: 123.4; 2: 116.7; 3: 142.2
